Values were extracted from ChEMBL document CHEMBL3988442.

tested on: Wolbachia pipientis; assay: Anti-Wolbachia Cell-Based Screen; type: functional; parameters: scale not given: in the data most compounds retested in dose-response had high values; conditions: 5 µM
Hit rate of the full screen: of about 48,000 compounds, about 13,000 (27%) showed an effect of 50% or more. This is one part of the list.
Recorded Percent Effect for the following compounds
Reply with just the number (in %).

CN(CCOc1cccc(CN)c1)C1CCOCC1 : 3.585
CN(Cc1cc(C2CC2)[nH]n1)C(=O)C(c1cccnc1)N1CCCC1 (stereo not drawn) : 5.078
Cc1ccccc1CS(=O)(=O)c1nnc(N2CCOCC2)s1 : -8.396
CC(NC1(CNC(=O)OC(C)(C)C)CCOCC1)c1ccccc1 (stereo not drawn) : 3.949
N#CC1COCCN1S(=O)(=O)c1ccc(F)c(Br)c1 (stereo not drawn) : -8.72
COc1cc(F)ccc1C(C(=O)O)N(C)CCN1CCOCC1 (stereo not drawn) : -4.538
O=C(NCCC(O)c1ccco1)c1ccccc1Br (stereo not drawn) : 14.27
CCCn1ncc(C(=O)N(C)Cc2n[nH]c3c2CCC3)c1C : -0.7404

[ask] Report measured Percent Effect; entry is CCC(C)NC(=O)CS(=O)(=O)Cc1ccccc1Cl (stereo not drawn)
[reply] -0.4939

[ask] Report measured Percent Effect; entry is Cc1cccc(N2CCN(CCC(=O)NCc3ccc(C)s3)CC2)c1
[reply] 3.46

[ask] Report measured Percent Effect; entry is CC(C)S(=O)(=O)c1nnc(CCNC(=O)OC(C)(C)C)o1
[reply] 16.12

[ask] Report measured Percent Effect; entry is COc1ccc(CN(C)Cc2cccc(C#N)c2)c(OC)c1
[reply] 0.7087

[ask] Report measured Percent Effect; entry is CN(Cc1cccc(C#N)c1)S(=O)(=O)N1CCOCC1
[reply] 12.93
